Target: PIK3CA (human) (UniProt P42336)
Sequence (P42336 whole entry, looked up): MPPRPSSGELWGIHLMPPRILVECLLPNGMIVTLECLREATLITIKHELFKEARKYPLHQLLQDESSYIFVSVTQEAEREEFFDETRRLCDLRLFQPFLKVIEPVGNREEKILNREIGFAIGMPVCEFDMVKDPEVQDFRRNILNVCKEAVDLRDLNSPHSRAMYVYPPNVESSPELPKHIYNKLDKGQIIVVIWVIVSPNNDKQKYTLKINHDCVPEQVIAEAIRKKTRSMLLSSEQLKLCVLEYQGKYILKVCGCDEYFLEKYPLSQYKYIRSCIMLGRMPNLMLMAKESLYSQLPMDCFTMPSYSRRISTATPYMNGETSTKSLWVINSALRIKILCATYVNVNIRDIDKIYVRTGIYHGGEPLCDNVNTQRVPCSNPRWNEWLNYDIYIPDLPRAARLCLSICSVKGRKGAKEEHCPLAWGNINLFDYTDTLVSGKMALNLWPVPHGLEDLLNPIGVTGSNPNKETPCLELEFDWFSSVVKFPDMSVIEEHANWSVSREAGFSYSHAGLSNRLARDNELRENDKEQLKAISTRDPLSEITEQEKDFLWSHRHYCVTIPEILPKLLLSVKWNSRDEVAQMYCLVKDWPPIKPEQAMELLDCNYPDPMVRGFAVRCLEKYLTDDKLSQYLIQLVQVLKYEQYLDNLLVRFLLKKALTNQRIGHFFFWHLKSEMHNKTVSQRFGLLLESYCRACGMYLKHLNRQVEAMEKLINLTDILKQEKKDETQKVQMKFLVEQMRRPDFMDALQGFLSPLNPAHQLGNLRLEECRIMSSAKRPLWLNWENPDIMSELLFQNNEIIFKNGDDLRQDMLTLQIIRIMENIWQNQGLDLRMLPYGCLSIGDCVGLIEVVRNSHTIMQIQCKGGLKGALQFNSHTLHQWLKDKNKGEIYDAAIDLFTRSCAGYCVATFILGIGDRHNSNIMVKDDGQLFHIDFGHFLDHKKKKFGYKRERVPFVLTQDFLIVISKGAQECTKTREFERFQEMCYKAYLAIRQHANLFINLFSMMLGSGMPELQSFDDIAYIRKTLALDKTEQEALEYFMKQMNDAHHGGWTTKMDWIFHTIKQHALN
IC50: recorded values

Would you please look over these solved cases?
INSERT INTO assay_data (line_notation, parameter_measured, result) VALUES
  ('COCCNc1cc(-c2sc(-c3nnc[nH]3)c(-c3ccc(Cl)cc3Cl)c2C#N)ccn1', 'IC50', '100 to 1000 nM'),
  ('Cc1nn2ccccc2c1-c1nc(-c2c(F)cccc2Cl)c(-c2nc[nH]n2)s1', 'IC50', '< 100 nM');

// query Please provide the recorded IC50 for `N#Cc1c(-c2ccnc(F)c2)sc(-c2nnc[nH]2)c1-c1ccc(Cl)cc1Cl` , tested on PIK3CA (human) (UniProt P42336).
// result 100 to 1000 nM

// query Please provide the recorded IC50 for `CC(=O)Nc1cc(-c2nc(-c3ccc(Cl)cc3Cl)c(-c3ncc[nH]3)s2)c(C)cn1` , tested on PIK3CA (human) (UniProt P42336).
// result 100 to 1000 nM

// query Please provide the recorded IC50 for `CCOc1nc(-c2ccnc(NC(=O)Cc3ccccc3)c2)sc1-c1nnc[nH]1` , tested on PIK3CA (human) (UniProt P42336).
// result 100 to 1000 nM

// query Please provide the recorded IC50 for `Cc1nn2ccc(OCCN3CCC(O)CC3)cc2c1-c1nc(-c2ccccc2)c(-c2nc[nH]n2)s1` , tested on PIK3CA (human) (UniProt P42336).
// result < 100 nM

// query Please provide the recorded IC50 for `Cc1nn2ccc(OCCNC(=O)C(C)(C)N)cc2c1-c1nc(-c2ccccc2)c(-c2nc[nH]n2)s1` , tested on PIK3CA (human) (UniProt P42336).
// result < 100 nM

* * *

Biological target: PIK3CA (human)
Assay: Assessment of PI3KCA Kinase Activity
pIC50: −log10 of the molar value.
Parameter measured: pIC50

Would you please look over these solved cases?
INSERT INTO measurements (line_notation, result) VALUES
  ('N#Cc1c(-c2nc(N)ncc2Cl)sc(-c2nnc[nH]2)c1-c1ccc(Cl)cc1Cl', '6.00 to 7.00'),
  ('COC(=O)Nc1cc(-c2sc(-c3ncc[nH]3)c(-c3ccc(Cl)cc3Cl)c2C#N)ccn1', '> 7.00'),
  ('CC(=O)Nc1cc(-c2nc(Br)c(-c3ncc[nH]3)s2)ccn1', '6.00 to 7.00'),
  ('Cc1nn2ccccc2c1-c1nc(-c2ccccc2C(F)(F)F)c(-c2nnc[nH]2)s1', '> 7.00'),
  ('Cc1nn2ccccc2c1-c1nc(-c2cc(F)ccc2F)c(-c2nc[nH]n2)s1', '> 7.00'),
  ('Cc1nn2ccc(OCCN3CCOCC3)cc2c1-c1nc(-c2ccccc2F)c(-c2nc[nH]n2)s1', '> 7.00'),
  ('CNc1ncc(Cl)c(-c2sc(-c3nnc[nH]3)c(-c3ccc(Cl)cc3Cl)c2C#N)n1', '6.00 to 7.00'),
  ('CCNC(=O)Nc1cc(-c2nc(OCC)c(-c3nc[nH]n3)s2)ccn1', '6.00 to 7.00');

// query Please report the recorded pIC50 for `CC(=O)Nc1cc(-c2nc(-c3ccc(C(=O)N4CCNCC4)cc3)c(-c3ncc[nH]3)s2)ccn1` .
// result 6.00 to 7.00

// query Please report the recorded pIC50 for `Cc1nn2ccccc2c1-c1nc(-c2cc(C=O)ccc2Cl)c(-c2nnc[nH]2)s1` .
// result > 7.00

// query Please report the recorded pIC50 for `COc1cccc(F)c1-c1nc(-c2c(C)nn3ccc(OCCN4CCN(C)CC4)cc23)sc1-c1nc[nH]n1` .
// result > 7.00

// query Please report the recorded pIC50 for `Cc1nnc(-c2sc(-c3c(C)nn4ccsc34)nc2-c2ccccc2)[nH]1` .
// result > 7.00

// query Please report the recorded pIC50 for `Cc1nn2ccc(OC3CCN(C(=O)CO)CC3)cc2c1-c1nc(-c2ccccc2)c(-c2nnc[nH]2)s1` .
// result > 7.00

// query Please report the recorded pIC50 for `CCOc1nc(-c2ccnc(NC(=O)c3cccc(F)c3)c2)sc1-c1nnc[nH]1` .
// result > 7.00

// query Please report the recorded pIC50 for `CCCOc1nc(-c2c(C)nn3ccccc23)sc1-c1nnc[nH]1` .
// result > 7.00

// query Please report the recorded pIC50 for `Cc1nn2ccc(OCCN3CCCCC3)cc2c1-c1nc(-c2ccccc2F)c(-c2nc[nH]n2)s1` .
// result > 7.00

// query Please report the recorded pIC50 for `Cc1nc(NC(=O)C2CC2)sc1-c1nc(-c2ccccc2)c(-c2nc[nH]n2)s1` .
// result > 7.00

// query Please report the recorded pIC50 for `COc1ccc(-c2nc(-c3c(C)nn4ccccc34)sc2-c2nc[nH]n2)c(OC)c1` .
// result > 7.00

// query Please report the recorded pIC50 for `N#Cc1c(-c2ccnc(NC(=O)C3CC3)c2)sc(-c2nnc[nH]2)c1-c1ccc(Cl)cc1Cl` .
// result > 7.00

// query Please report the recorded pIC50 for `CC(=O)Nc1cc(-c2nc(-c3cccc(C)c3)c(-c3ncc[nH]3)s2)ccn1` .
// result 6.00 to 7.00

// query Please report the recorded pIC50 for `Clc1ccc(-c2cc(-c3ccnc4[nH]ccc34)sc2-c2ncc[nH]2)c(Cl)c1` .
// result > 7.00

// query Please report the recorded pIC50 for `N#Cc1c(-c2ccnc(NC(=O)CN)c2)sc(-c2nnc[nH]2)c1-c1ccc(Cl)cc1Cl` .
// result > 7.00

// query Please report the recorded pIC50 for `CC(=O)Nc1cc(-c2nc(-c3ccc(Cl)cc3Cl)c(-c3ncc[nH]3)s2)ncn1` .
// result > 7.00

* * *

Molecular target: PIK3CA (human) (UniProt P42336)
IC50: recorded values

Would you please look over these solved cases?
INSERT INTO measurements (line_notation, system, parameter_measured, result) VALUES
  ('CC(C)C(=O)Nc1cc(-c2sc(-c3ncc[nH]3)c(-c3ccc(Cl)cc3Cl)c2C#N)ccn1', 'PIK3CA (human) (UniProt P42336)', 'IC50', '< 100 nM'),
  ('CC(=O)Nc1cc(-c2sc(-c3cnc[nH]3)c(-c3ccc(Cl)cc3Cl)c2C#N)ccn1', 'PIK3CA (human) (UniProt P42336)', 'IC50', '< 100 nM'),
  ('Cc1nn2ccccc2c1-c1nc(-c2ccc(NC(=O)OCc3ccccc3)cc2)c(-c2nc[nH]n2)s1', 'PIK3CA (human) (UniProt P42336)', 'IC50', '100 to 1000 nM'),
  ('N#Cc1c(-c2ccnc(N)c2)sc(-c2ncc[nH]2)c1-c1ccc(Cl)cc1Cl', 'PIK3CA (human) (UniProt P42336)', 'IC50', '< 100 nM'),
  ('CNC(=O)Nc1cc(-c2sc(-c3ncc[nH]3)c(-c3ccc(Cl)cc3Cl)c2C#N)ccn1', 'PIK3CA (human) (UniProt P42336)', 'IC50', '< 100 nM');

Now, please, on to the next compound.
// query Please provide the recorded IC50 for `Cc1nn2ccccc2c1-c1cc(-c2ccccc2)c(-c2nnc[nH]2)s1` , tested on PIK3CA (human) (UniProt P42336).
// result < 100 nM

* * *

Let's go through some IC50 measurements on PIK3CA (human) together.

INSERT INTO assay_data (line_notation, system, parameter_measured, result) VALUES
  ('Cc1nn2ccccc2c1-c1nc(-c2ccc(CN)cc2)c(-c2nc[nH]n2)s1', 'PIK3CA (human)', 'IC50', '100 to 1000 nM'),
  ('Cc1nc2ccc(CNCCCN)cn2c1-c1nc(-c2ccccc2)c(-c2nnc[nH]2)s1', 'PIK3CA (human)', 'IC50', '< 100 nM');

// query Please provide the recorded IC50 for `Cc1nn2ccccc2c1-c1nc(-c2ccc(F)cc2F)c(-c2nc[nH]n2)s1` , tested on PIK3CA (human).
// result < 100 nM

// query Please provide the recorded IC50 for `Clc1ccc(-c2cc(-c3ccnc4ccccc34)sc2-c2ncc[nH]2)c(Cl)c1` , tested on PIK3CA (human).
// result 100 to 1000 nM

// query Please provide the recorded IC50 for `Cc1nn2ccccc2c1-c1nc(N(C)c2ccc(Cl)cc2)c(-c2nnc[nH]2)s1` , tested on PIK3CA (human).
// result < 100 nM

// query Please provide the recorded IC50 for `CC(=O)N1CCC(Oc2ccn3nc(C)c(-c4nc(-c5ccccc5)c(-c5nc[nH]n5)s4)c3c2)CC1` , tested on PIK3CA (human).
// result < 100 nM

// query Please provide the recorded IC50 for `CC(=O)Nc1cc(-c2nc(-c3ccc(C)cc3)c(-c3ncc[nH]3)s2)ccn1` , tested on PIK3CA (human).
// result < 100 nM

The values you see were collected from the Kinase Knowledgebase extract (Sharma et al. 2016).
